observable: melting point

[
  {
    "compound": "C[C@@H](n1cnc2cc(N3CCN(C)CC3)ccc2c1=O)[C@](O)(Cn1cncn1)c1ccc(F)cc1F",
    "melting point": "121 to 131 °C"
  },
  {
    "compound": "CCN(CC)C(C)CN1CCc2c(c(=O)oc3cc(OC)ccc23)C1 (stereo unspecified)",
    "melting point": "83 to 85 °C"
  },
  {
    "compound": "C[C@H]1Oc2ccc(F)cc2NC(=O)[C@H]1NC(=O)OC(C)(C)C",
    "melting point": "141 to 148 °C"
  }
]

Quick one: give me melting point for each item below, same order please.
1. C[C@@](N)(Cc1ccc(-c2cncnc2)cc1)C(=O)Nc1cc(Cl)cc(Cl)c1
2. CCC(Oc1c(C)c(F)cc(F)c1F)C1=NCCN1 (stereo unspecified)
3. O=S(=O)(Cl)c1c(Cl)sc(Cl)c1Cl
4. CCc1nc2c(N)nc3cc(CCCNC(=O)NC(C)C)ccc3c2n1CC1CCOCC1
5. N#Cc1ccc(C(=C2CCCC2)c2nc[nH]n2)cc1
6. CS(=O)(=O)Nc1ccc(C#N)cc1C(O)c1ccc(F)cc1F (stereo unspecified)
7. O=C(Cl)CC(c1ccccc1)c1ccccc1

124 to 126 °C
99 to 101 °C
55 °C
213 to 216 °C
72 °C
133 to 135 °C
41 to 43 °C

Lab note: each compound below needs its melting point filled in.
1. COCCNC(=O)C1=C(C(=O)Nc2cc(OC3CCCC3)c(Cl)cc2F)CCCC1
2. CCCCCCCCCOP(=O)(CNC(=O)Nc1c(C(C)C)cccc1C(C)C)OCC (stereo unspecified)
3. Cc1ccc(C(=O)n2c3c(c4ccccc42)CC(C(=O)O)(C(=O)O)CC3)cc1
4. COc1cccc(N(CC(=O)N(C)c2ccccc2)C(=O)CN2C(=O)c3ccccc3C2=O)c1
5. COC(=O)c1cc(NC(=O)Nc2ccccc2)ccn1
6. CN1CCC(O)(c2ccccc2Cc2ccccc2)C1 (stereo unspecified)
7. COc1cc(Br)c(OC)c(C(N)=O)c1

1. 151 °C
2. 66 to 70 °C
3. 190 to 195 °C
4. 137 °C
5. 206 to 208 °C
6. 108 to 109 °C
7. 222 to 225 °C

----------
observable: melting point

[
  {
    "compound": "CCOC(=O)c1cn(Cc2ccccc2)nc1OCc1ccc(OCc2nc(-c3ccco3)oc2C)c(C)c1",
    "melting point": "120 to 121 °C"
  },
  {
    "compound": "CCOC(=O)c1ccccc1CS(=O)(=O)Cl",
    "melting point": "63 to 64 °C"
  },
  {
    "compound": "O=C(OCc1ccccc1)c1cc(I)ccc1OCc1ccccc1",
    "melting point": "72 to 73 °C"
  },
  {
    "compound": "CC(C)(O)C(=O)Nc1ccc2oc3ccccc3c2c1",
    "melting point": "134 to 137 °C"
  },
  {
    "compound": "COCc1cc(C(=O)NC(C)(C)C)c(C(=O)OC)cn1",
    "melting point": "138 to 142 °C"
  }
]

Give melting point for each of the items listed below.
1. NN(CCCCO)c1nc2ccccc2o1
2. CC1Cc2c(N3CCN(CC(F)(F)F)CC3)c(F)cc3c(=O)c(C(=O)O)cn1c23 (stereo not given)
3. O=C(NCC12CC3CC(CC(C3)C1)C2)c1c(Cl)ccc2nc(N3CCC[C@@H](C(=O)O)C3)ccc12
4. COc1ccc(-c2ccc(C(=O)O)cc2)c2c1OCCO2
5. CCCc1cc(N2CCC(NCC(O)c3nccc4ccccc34)CC2)nc2sc(C(N)=O)c(N)c12 (stereo not given)
6. COc1cccc(-n2c(-c3ccccc3)cc(=O)c(C)c2-c2ccccc2)c1
7. O=C(Cn1nc(-c2ccccc2O)nc1-c1ccccc1O)N1CCOCC1

1: 87 to 90 °C; 2: 287 to 289 °C; 3: 257 to 262 °C; 4: 281 to 284 °C; 5: < 150 °C; 6: 183 to 185 °C; 7: 149 to 151 °C

Items follow; give melting point for each.
1. O=C(Nc1cccc(O)c1)NC1N=C(c2ccccc2F)c2ccccc2N(CC(=O)N2CC3CCC(CC3)C2)C1=O (racemic)
2. CCCCN1C(=O)c2cncnc2Nc2ccccc21
3. O=CN1CCC23CC(=O)CCC2C1Cc1cccc(O)c13 (stereo not given)
4. COC(=O)c1cn(Cc2ccc3cc(OCc4ccccc4)ccc3c2)cc1-c1ccccc1
5. O=C(c1ccccc1)c1sc2cc(O)ccc2c1-c1ccccc1

1. 184 to 185 °C
2. 145 to 147 °C
3. 260 to 262 °C
4. 109 to 110 °C
5. 187 to 190 °C

// input: 3 compounds below; output: melting point for each
1. Ic1ccc2c3c(cccc13)C(=NCc1ccccc1)N2
2. CC(C)n1nc(-c2cnc(N)nc2-c2ccco2)ccc1=O
3. NC(=O)C(F)(F)C(F)(F)C(=O)C(F)(F)F

["160 to 163 °C", "215 °C", "82 to 87 °C"]

----------
For each entry below, report its melting point value.

Observe how each entry below is paired with its result.
[
  {
    "molecule": "O=Cc1ccc2c(c1)CC[C@H](Cc1ccc(O)cc1)O2",
    "melting point": "134 to 135 °C"
  },
  {
    "molecule": "CCCS(=O)(=O)c1ccc(NS(=O)(=O)c2cccs2)c2[nH]c(C(=O)OCC)cc12",
    "melting point": "201 to 202 °C"
  },
  {
    "molecule": "CC(=C1SC(=O)NC1=O)c1ccc(SCCc2ccccc2)cc1",
    "melting point": "183 to 187 °C"
  },
  {
    "molecule": "O=C(NCC(F)(F)F)C1(CCCCc2ccc(NS(=O)(=O)c3ccccc3)cc2)c2ccccc2-c2ccccc21",
    "melting point": "130 to 132 °C"
  },
  {
    "molecule": "COC(=O)C12COc3ccccc3C1NN(C(=O)Nc1ccc(C(F)(F)F)cc1)C2 (stereo not given)",
    "melting point": "211 to 212 °C"
  },
  {
    "molecule": "CS(=O)(=O)c1cc(OCc2ccccc2)c(C(=O)O)s1",
    "melting point": "188 to 189 °C"
  },
  {
    "molecule": "Cc1ccc(-c2ccc3cc(C(=O)Nc4ccc(CN(C)C5CCOCC5)cc4)n(C)c3c2)cc1",
    "melting point": "225 to 226 °C"
  },
  {
    "molecule": "CC(C)(CNC(=O)CSCC(=O)O)SN=O",
    "melting point": "47 to 51 °C"
  }
]

Give one value of melting point per listed molecule.
1. CCCc1nc2c(N)nc3cc(OCCCNS(=O)(=O)CCc4cccc5ccccc45)ccc3c2n1CC(C)C
2. COc1ccc(C(=O)Nc2ncnc3c2ncn3[C@H]2CC[C@H](CC(=O)O)C[C@@H]2NC(=O)OC(C)(C)C)cc1
3. N#CCCNC(=O)c1cccc(-c2cccn3c(=O)n(Cc4cccc(C(F)(F)F)c4)nc23)c1
4. CS(=O)(=O)N(Cc1ccncc1)c1ccc(F)cc1F
5. Cc1ccccc1-n1nccc1-c1nn(-c2cccc(C(F)(F)F)c2)ccc1=O
6. CCOC(=O)C=C1CCC(C#N)(c2ccc(OC)c3c2OCCO3)CC1 (stereo not given)

1: 164 to 168 °C; 2: 238 to 239 °C; 3: 217 to 219 °C; 4: 101 to 105 °C; 5: 126 to 127 °C; 6: 110 to 112 °C

----------
Consider the following molecules; for each one, report its melting point.

[
  {
    "molecule": "Cn1c(=O)c(=O)n(Cc2ccc(Cl)cc2Cl)c2cc(C(=O)O)ccc21",
    "melting point": "320 to 322 °C"
  },
  {
    "molecule": "CCCn1c(COCC)nc2c(N)nc3cc(OC4CCN(C(=O)NC(C)C)CC4)ccc3c21",
    "melting point": "163 to 164 °C"
  },
  {
    "molecule": "C=CC(CSCCC(F)(F)C(F)(F)C(F)(F)C(F)(F)C(F)(F)C(F)(F)F)SSc1nc2ccccc2s1 (centres undefined)",
    "melting point": "47 to 48 °C"
  },
  {
    "molecule": "CC(C)(C)OC(=O)NCCCN1CCC(CCCCNC(N)=NC(=O)c2nc(Cl)c(N)nc2N)CC1",
    "melting point": "98 to 102 °C"
  },
  {
    "molecule": "CC1CC(c2c(S(C)(=O)=O)ccc(C(=O)O)c2Cl)=NO1 (centres undefined)",
    "melting point": "173 to 178 °C"
  },
  {
    "molecule": "CCCN(CCC)Cc1cnc(-c2ncn3c2CN(C)C(=O)c2ccccc2-3)o1",
    "melting point": "133 to 135 °C"
  }
]

Go through the list and state melting point for each entry.
1. CCOc1nc(N)nc(C(F)(F)F)n1
2. O=C(O)c1cn(-c2ccc(F)c(O)c2)c2c(Cl)c(F)c(F)cc2c1=O
3. CC(C)n1nc(O)nc1Cl
4. CC(C)(C)NC(=O)[C@@H]1CCCN1C(=O)[C@@H](O)[C@H](Cc1ccccc1)NC(=O)[C@H](CC(N)=O)NC(=O)OC(C)(C)C

["124 to 125 °C", "> 280 °C", "100 to 104 °C", "113 to 115 °C"]
